System: E13 (patient-derived glioblastoma stem cells of classical subtype);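 also: cell Painting imaging in 384-well plates, CellProfiler features reduced to at least 20 principal components, Euclidean distance versus same-plate DMSO vehicle wells (0.1% v/v), median over six images per well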
test: phenotypic distance (Euclidean, principal components) from DMSO controls (arbitrary units); higher = stronger morphological change
assay-conditions: 111.1 nM; exposure time: 72 h
endpoint-label: phenotypic distance
# respond with the number and nothing more

Example entries and their recorded answers appear below.
> print(dat)
                                   molecule  measured.result
1  CC[C@@]1(O)C(=O)OCc2c1cc1n(c2=O)Cc2cc3cc(O)ccc3nc2-1 [Hydroxy Camptothecine]              6.9
2    O=C1CC[C@@H](C(=O)N2CSC[C@H]2C(=O)O)N1            0.456
3  CCn1cc(-c2ccnc3[nH]c(-c4cccc(CN(C)C)c4)cc23)c(-c2ccc(NC(=O)N(C)C)cc2)n1             5.04

Query (molecule): Cc1ccc(C(=O)Nc2ccc(CN3CCN(C)CC3)c(C(F)(F)F)c2)cc1C#Cc1cnc2cccnn12 ; field requested: phenotypic distance
2.38

Returns the measured phenotypic distance for the input molecule. Input: Nc1ccn([C@H]2CC[C@@H](CO)O2)c(=O)n1
0.722

These entries and their values trace back to the supplement of paper PMC13207355.
